Where these numbers come from: the domain aggregation screens of Martell et al. (2025)

Experiment: soluble fraction after stress (log2 fold change); higher = more stays soluble; pooled small domains, quantitative proteomics
Conditions: stress: 50 degC
Measured soluble fraction (log2) by item
readout: soluble fraction (log2)

1. HMRGGWESLTDREREIAVLAAEGHSNRTIASTLFISDRTVQSHVSRALRALGVDSRTGIPSLVTTATR | -0.0688
2. HMNNLVGKTKVLKSNTNIYAYKTMSGKFYSYLPNTRVRVLQDLGYINYIEVIATKRRGYVYENVY | -0.0937
3. HMDAPRFAAGDAVRVAGLVSKPQHNGRAGSVLSYDPVSLRYIVKVDGEDEPLKLKPENVLMPA | 0.136
4. HMETFGEKDLDELIGRNVELITHDGKVREGLVDSVDRYNVSLVRYLDAGEVAMMVRRREVKAVRLK | 0.0419
5. HMGNLASGAYEQIKRRILSLEYLPGSILQERGLAEELGISRTPVREAIHRLSQEGWLKINSRKNIRVR | -1.98
6. HMARYSMLEEQLLQLINKHGTMSTPKLVEATGAPRSTVTYQLRKLLESGTIERTQPARSPKQSYRIKS | -0.238
7. HMSDKFNALWIILNKLDKKEKVTARSLMEDLEVSERSVYRYITTLQVAGFPVDYDRAVNSYVFSDGYTLK | -4.08
8. HMVVANTAIKSELQNIVANENKQAPLSDQKIVDQLKQAGFDISRRTVVKYRDALGIPTSRNRKR | -0.131
9. HMSPVKAPLPGVVLDIHVSVGQEVKASDTVVTLEAMKMENAIKAGVDGKVASISVGKGDSVLEGAVLLTI | 0.0738

----------
Experiment: soluble fraction after stress (log2 fold change); higher = more stays soluble; pooled small domains, quantitative proteomics
Settings: stress: 50 degC
readout: soluble fraction (log2)

1. HMEMKVIPFNQMTRDQFDQLDRFLGRLAAAQAMGSLRLTKAQQNYFLNQVKQLDLYRKRILN | -0.787
2. HMTPEPVREALTFQEGRVFALAAKNMTNAEIAQSLSLKLKTVENYMSIIYQKLALKNRYELLVYARKSGV | -0.631
3. HMDTPMYMAIIEEVRFQIANEILKEGEQLPSIRNLAKTLKVSVITVKRAYKELEEAGYITTIPAKGSKVS | -1.43
4. HMIIVMSANANAREISEVIARIRAMGYDVHLSHGKERTIIGVIGRGTPIDREQLSLMSGVQQVMPV | -1.03
5. HMETTVSYSGVVTASVLRIRKGPSVSSSVAGTLKKGTGVSIIFEDNGWGKLADGSGWVSLTYIKKNSTP | -0.302
6. HMQYQIITENGKQYYLYTVQKSEGFYSIGKRFEITNDEIIKANPEAALGLKLGQVLKIPVYK | -0.331
7. HMTLSHAINRLRLNANMSQEQFAGLFHVSQQSVQKWESGDSVPELSKLIAIAKHFGISLDALILGN | -0.614
8. HMSILPGVYRHYKGNHYQVFYLAKHSETLEDMVVYQALYGERGIWVRPASMWNETVDDQGKQVKRFTYI | -0.24
9. HMTVDIADALRVLGLSDAPDWSDVRAAHRRAIVRTHPDAGGSAGDAARVNQAFDLLRKISGNGERPIPG | 0.154
10. HMSSDEAEYKLLLGQEGVAKSPLRPSGVVDFSGRRLDVQTLGDFIESGETVVVKQVNGHRVLVERK | 0.158
11. HMVNSIQIHKKLRLDKRAGSDNWYARLTLPNGKRLVKTTKTEDIETAKEVALRLYYEVDARIQNKLPAT | -1.45
12. HMRRRTLRQGATGSDVHAVQRLLNVDGAGLRTDGIFGPATERAVIAYQRKHGLAVDGVVGRETWTALLG | -0.61
13. HMEDSHIYPVSFNGKMRFKLELPVSMNKKEIEEVVLQHEDAQKWLNGQNPKKVIVVPKRIINIV | 0.0081
14. HMSHQIIIVAVELDPSTERIVYYLSKNGISINVLFFKVFQHGDEQFLSRVWLIDPSETQTNAALA | -0.466
15. HMSAPEGWMNRGDLRDNFRIQYPVTDRIIASYRESHPEWFGTYLSKTSKSLEYFHPDLVAKVREAAN | -0.101
16. HMPASVEYIRLAAEQMTGQQVTIIEQPGNYAFILRIHLNDIYSLDLAALRARIDELKPAHLTYTVEQYD | -2.71
17. HMTRETTQAWWEARQTLPSGEQRSAASLSQEASHVRRFYRWAMQQGLTDRNPADWLPDVRQK | -0.232
18. HMDGPGDRLLIAIQENSMTQKKFAQLIGMSPNGLNSIIKGKKRLSRVLAIATERLTGVRADWILQNEQPK | 0.0136
19. HMYESAMSDLHARIMSSDDPHGEIYKMLTQSGPEAKYIQDMYNETSIDRGLHPDDDFEDIIDAMVAELDD | -0.479
20. HMSDYKSALQEAVQTNKQSIEYVLIKESGPAHNKTFTFEVRIDNISYGVGTAKSKKEAEQIAAKDALDKLV | -0.0635
